Let's look at some binders and their measured kon.
target.system: human mesothelin (MSLN) (human) (UniProt Q13421)
protocol.notes: BLI (Octet), bsAb in 1+1 Fab-scFv-Fc format
A number alone suffices; assume M⁻¹ s⁻¹.

Take a look at these entries with their results.
XENP32564 (bispecific antibody, part only; not given: anti-CD3 scFv-Fc arm, constant regions, V domains shown, not shown: another chain or arm of the molecule; a dimerising Fc or GST; small tags and cut ends) VH: QVQLVQSGAEVKKPGASVKVSCKASGYTFTSYWMHWVRQAPGQGLEWMGMIHPNSDNTIYYEKFQGRVTMTVDKSISTAYMELSRLRSDDTAVYYCAIIITPVVPKFDYWGQGTLVTVSS VL: DIVMTQSPDSLAVSLGERATINCKASHDVGTSLAWYQQKPGQSPKLLIYWASTRHTGVPDRFTGSGSGTDFTLTISSLQAEDVAVYFCQQYSSYPLTFGAGTKLEIK; 660000
XENP32550 (bispecific antibody, part only; not given: anti-CD3 scFv-Fc arm, constant regions, V domains shown, not shown: another chain or arm of the molecule; a dimerising Fc or GST; small tags and cut ends) VH: QVQLVQSGAEVKKPGASVKVSCKASGYTFTGYWMHWVRQAPGQGLEWMGMIHPNSDNTIYYEKFQGRVTMTVDKSISTAYMELSRLRSDDTAVYYCAIIITPVVPKFDYWGQGTLVTVSS VL: DIVMTQSPDSLAVSLGERATINCKASHDVGTSVAWYQQKPGQSPKLLIYWASTRHTGVPDRFTGSGSGTDFTLTISSLQAEDVAVYFCQQYSSYPLTFGAGTKLEIK; 522000
XENP32559 (bispecific antibody, part only; not given: anti-CD3 scFv-Fc arm, constant regions, V domains shown, not shown: another chain or arm of the molecule; a dimerising Fc or GST; small tags and cut ends) VH: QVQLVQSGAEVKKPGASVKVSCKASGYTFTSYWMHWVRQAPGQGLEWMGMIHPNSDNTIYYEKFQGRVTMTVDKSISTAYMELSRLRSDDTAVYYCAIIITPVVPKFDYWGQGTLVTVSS VL: DIVMTQSPDSLAVSLGERATINCKSSHDVGTSVAWYQQKPGQSPKLLIYWASTRHTGVPDRFTGSGSGTDFTLTISSLQAEDVAVYFCQQYSSYPLTFGAGTKLEIK; 569000
XENP32569 (bispecific antibody, part only; not given: anti-CD3 scFv-Fc arm, constant regions, V domains shown, not shown: another chain or arm of the molecule; a dimerising Fc or GST; small tags and cut ends) VH: QVQLVQSGAEVKKPGASVKVSCKASGYTFTSYWMHWVRQAPGQGLEWMGMIHPQSDNTIYYEKFQGRVTMTVDKSISTAYMELSRLRSDDTAVYYCAIIITPVVPKFDYWGQGTLVTVSS VL: DIVMTQSPDSLAVSLGERATINCKASHSVGTSVAWYQQKPGQSPKLLIYWASTRHTGVPDRFTGSGSGTDFTLTISSLQAEDVAVYFCQQYSSYPLTFGAGTKLEIK; 693000
XENP32570 (bispecific antibody, part only; not given: anti-CD3 scFv-Fc arm, constant regions, V domains shown, not shown: another chain or arm of the molecule; a dimerising Fc or GST; small tags and cut ends) VH: QVQLVQSGAEVKKPGASVKVSCKASGYTFTSYWMHWVRQAPGQGLEWMGMIHPNSGNTIYYEKFQGRVTMTVDKSISTAYMELSRLRSDDTAVYYCAIIITPVVPKFDYWGQGTLVTVSS VL: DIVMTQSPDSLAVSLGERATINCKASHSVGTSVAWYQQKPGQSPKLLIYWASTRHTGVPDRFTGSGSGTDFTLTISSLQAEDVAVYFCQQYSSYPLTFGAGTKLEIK; 717000
XENP31701 (bispecific antibody, part only; not given: anti-CD3 scFv-Fc arm, constant regions, V domains shown, not shown: another chain or arm of the molecule; a dimerising Fc or GST; small tags and cut ends) VH: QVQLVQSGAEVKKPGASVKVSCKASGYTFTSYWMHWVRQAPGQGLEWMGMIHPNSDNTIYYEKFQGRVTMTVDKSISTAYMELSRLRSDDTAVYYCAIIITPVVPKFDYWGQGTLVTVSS VL: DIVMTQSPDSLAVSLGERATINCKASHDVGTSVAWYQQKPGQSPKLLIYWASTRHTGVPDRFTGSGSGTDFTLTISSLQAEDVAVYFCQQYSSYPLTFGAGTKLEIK; 583000
XENP32557 (bispecific antibody, part only; not given: anti-CD3 scFv-Fc arm, constant regions, V domains shown, not shown: another chain or arm of the molecule; a dimerising Fc or GST; small tags and cut ends) VH: QVQLVQSGAEVKKPGASVKVSCKASGYTFTSYWMHWVRQAPGQGLEWMGMIHPNSDNTIYYEKFQGRVTMTVDKSISTAYMELSRLRSDDTAVYYCAIIISPVVPKFDYWGQGTLVTVSS VL: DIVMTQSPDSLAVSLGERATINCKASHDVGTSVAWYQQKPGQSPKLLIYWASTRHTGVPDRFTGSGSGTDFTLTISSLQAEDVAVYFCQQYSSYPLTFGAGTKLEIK; 519000
XENP32566 (bispecific antibody, part only; not given: anti-CD3 scFv-Fc arm, constant regions, V domains shown, not shown: another chain or arm of the molecule; a dimerising Fc or GST; small tags and cut ends) VH: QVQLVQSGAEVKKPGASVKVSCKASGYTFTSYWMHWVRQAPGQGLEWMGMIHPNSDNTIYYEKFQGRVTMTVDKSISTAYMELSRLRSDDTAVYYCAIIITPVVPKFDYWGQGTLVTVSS VL: DIVMTQSPDSLAVSLGERATINCKASHDVGTSVAWYQQKPGQSPKLLIYWASTRHSGVPDRFTGSGSGTDFTLTISSLQAEDVAVYFCQQYSSYPLTFGAGTKLEIK; 627000

Task: Identify kon associated with the binder XENP32551 (bispecific antibody, part only; not given: anti-CD3 scFv-Fc arm, constant regions, V domains shown, not shown: another chain or arm of the molecule; a dimerising Fc or GST; small tags and cut ends) VH: QVQLVQSGAEVKKPGASVKVSCKASGYTFTSYYMHWVRQAPGQGLEWMGMIHPNSDNTIYYEKFQGRVTMTVDKSISTAYMELSRLRSDDTAVYYCAIIITPVVPKFDYWGQGTLVTVSS VL: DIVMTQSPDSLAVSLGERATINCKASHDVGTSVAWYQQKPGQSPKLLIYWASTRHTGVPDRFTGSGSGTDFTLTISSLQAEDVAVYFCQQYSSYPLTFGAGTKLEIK
Output: 483000

Task: Identify kon associated with the binder XENP32560 (bispecific antibody, part only; not given: anti-CD3 scFv-Fc arm, constant regions, V domains shown, not shown: another chain or arm of the molecule; a dimerising Fc or GST; small tags and cut ends) VH: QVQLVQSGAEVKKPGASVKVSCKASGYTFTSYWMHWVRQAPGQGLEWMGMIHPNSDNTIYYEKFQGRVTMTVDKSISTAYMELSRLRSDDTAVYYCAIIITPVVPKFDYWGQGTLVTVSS VL: DIVMTQSPDSLAVSLGERATINCKASQDVGTSVAWYQQKPGQSPKLLIYWASTRHTGVPDRFTGSGSGTDFTLTISSLQAEDVAVYFCQQYSSYPLTFGAGTKLEIK
Output: 605000

Where these numbers come from: patent US20230340128A1
